src = patent US20120225885A1

target: H3 receptor (UniProt Q9Y5N1); assay: H3 Receptor Binding Assay; details: displacement of 3 nM [3H]R-α-methyl histamine or [3H]Nα-methyl histamine; membranes from guinea pig brain, alternatively recombinant human receptor in HEK-293 cells; 30° C., 30 minutes; read-out: H3 Ave Ki
Readout Kind: pKi
Give bare numbers, as −log10 of the molar value.

Worked examples, 3 molecules total:
molecule="C[C@@H]1CCCN1CCc1cn2cc(-c3cccc(C#N)c3)ccc2n1 [Compound 9]" observed_value=7.89
molecule="C[C@@H]1CCCN1CCc1cn2ccc(Br)cc2n1 [Compound 12]" observed_value=7.00
molecule="COc1ccc(-c2ccc3nc(CCN4CCC[C@H]4C)cn3c2)cc1 [Compound 5]" observed_value=7.04

Each molecule below has a reported value. Please supply its pKi.
1. C[C@@H]1CCCN1CCc1cn2cc(-c3ccc4ncccc4c3)ccc2n1 [Compound 17]
2. C[C@@H]1CCCN1CCc1cn2cc(-c3ccccc3F)ccc2n1 [Compound 11]
3. C[C@@H]1CCCN1CCc1cn2cc(-c3ccc(F)cc3)ccc2n1 [Compound 6]
4. C[C@@H]1CCCN1CCc1cn2cc(-c3cnc(N)c(C#N)c3)ccc2n1 [Compound 23]
5. C[C@@H]1CCCN1CCc1cn2cc(-c3ccc(=O)n(C)c3)ccc2n1 [Compound 22]
6. C[C@@H]1CCCN1CCc1cn2ccc(-c3ccc(C#N)cc3)cc2n1 [Compound 13]
7. C[C@@H]1CCCN1CCc1cn2cc(-c3ccc(N(C)C)cc3)ccc2n1 [Compound 4]

Response:
1. 7.95
2. 7.13
3. 7.23
4. 7.66
5. 7.16
6. 7.47
7. 6.98

* * *

Biological target: UniProt:Q9Y5N1
Assay: H3 Receptor Binding Assay
Conditions: displacement of 3 nM [3H]R-α-methyl histamine or [3H]Nα-methyl histamine; membranes from guinea pig brain, alternatively recombinant human receptor in HEK-293 cells; 30° C., 30 minutes; read-out: H3 Ave Ki
Procedure: The source of the H3 receptors in this experiment was guinea pig brain. Alternatively, the source of H3 receptors was recombinant human receptor, expressed in HEK-293 (human embryonic kidney) cells. The animals weighed 400-600 g. The brain tissue was homogenized with a solution of 50 mM Tris, pH 7.5. The final concentration of tissue in the homogenization buffer was 10% w/v. The homogenates were centrifuged at 1,000×g for 10 minutes. in order to remove clumps of tissue and debris. […]
Readout Kind: Ki (nM)
Give bare numbers, in nM.

Some solved entries appear below for comparison.
compound_structure=C[C@@H]1CCCN1CCc1cn2cc(-n3ncccc3=O)ccc2n1 observed_value=76.8
compound_structure=C[C@@H]1CCCN1CCc1cn2ccc(-c3ccc(F)nc3)cc2n1 observed_value=36.5
compound_structure=C[C@@H]1CCCN1CCc1cn2cc(-c3ccc4[nH]ccc4c3)ccc2n1 observed_value=459

Query: Consider the molecule shown here: C[C@@H]1CCCN1CCc1cn2cc(Br)ccc2n1 What is its recorded Ki?
Response: 327
